Entry source: ChEMBL document CHEMBL1149395

Assay: Half life in rat at 10 mL/kg, po
Format: ADME, organism-based
Details: Sprague-Dawley, in vivo
MEASURED_ATTRIBUTE: half-life (h)

>>> print(df.to_string())
                                   molecule  measured_attribute  reported_measurement
0  CSc1ccc(-c2ccccc2C2CCC(F)(F)CC2C(=O)NCC#N)cc1 (racemic)           half-life                   3.5
1  CSc1ccc(-c2ccccc2C2CCC(Cl)(Cl)CC2C(=O)NCC#N)cc1 (racemic)           half-life                   3.1
2  N#CCNC(=O)C1CC(F)(F)CCC1c1ccccc1-c1ccc(F)cc1 (racemic)           half-life                   4.5

1 = CSc1ccc(-c2ccccc2[C@@H]2CCC(F)(F)C[C@H]2C(=O)NCC#N)cc1
2 = CSc1ccc(-c2ccccc2C2CCC(F)CC2C(=O)NCC#N)cc1 (racemic; form 1)
// compare measured half-life between 1 and 2 ; output the lower one Provide the label of your selected option as the answer. 2
